Test system: CAMA1
protocol summary: CellTiter-Glo Viability Assay, breast cancer
Assay type: cell-based
conditions used: Homo sapiens, CAMA-1, 96 h; CAMA1, breast cancer, four days; read-out: EC50
pEC50: −log10 of the molar value.
observable: pEC50

Record excerpt, results attached:
CN1CCCCN(C)c2nccc3[nH]c(nc23)-c2n[nH]c3ccc(cc23)-c2cncc(c2)C1 ... 5.99
Cc1cc2ncc(-c3ccc4cnc(NC(=O)c5ccnc(N6CCN(C)CC6)c5)cc4c3)cc2[nH]1 ... 5.58
CN1CCC(C(=O)Nc2c[nH]nc2-c2nc3c(-c4ccc(F)s4)cccc3[nH]2)CC1 ... 6.36
[2H]c1c([2H])c([2H])c(/C=C/C(=O)Nc2cc3cc(-c4cncn4C)ccc3cn2)c([2H])c1[2H] ... 6.37
CN1CCN(c2ccc(NC(=O)c3n[nH]c4ccc(-c5cncc(NC(=O)C6CC6)c5)cc34)cn2)CC1 ... 6.60
CN1CCC2(CC1)CN(c1cc(C(=O)Nc3cc4cc(-c5cnn(C)c5CO)ccc4cn3)ccn1)C2 ... 6.19
O=C(Nc1cncc(-c2ccc3[nH]nc(-c4cc5cnccc5[nH]4)c3c2)c1)C1CCCCC1 ... 6.68

(P) c1cc2cc(c1)-c1cncc3[nH]c(nc13)-c1n[nH]c3ccc(cc13)-c1cncc(c1)CNC2
(Q) CC(C)CC(=O)Nc1cncc(-c2ccc3[nH]nc(-c4cc5c(N6CCCCC6)cncc5[nH]4)c3c2)c1
(R) CS(=O)(=O)NCc1cc(F)cc(-c2nccc3[nH]c(-c4n[nH]c5ccc(-c6cncc(NC(=O)C7CCC7)c6)cc45)cc23)c1
(S) Cn1ncc(-c2ccc3cnc(NC(=O)C4CC5(C4)CN(CCF)C5)cc3c2)c1CN1CCCCC1
Rank order required: pEC50, descending. Answer with the labels in sequence, matching the requested order.
P, R, Q, S

====

System: MCF7
protocol summary: CellTiter-Glo Viability Assay, breast cancer
Format: cell-based
conditions used: Homo sapiens, 96 h; MCF7, breast cancer, four days; read-out: EC50
observable: EC50 (µM)

CN1CCC(C(=O)Nc2c[nH]nc2-c2nc3c(-c4ccc(F)s4)cccc3[nH]2)CC1 [Compound 90] ... 0.36

(A) CN1CCC(Oc2ccc(C(=O)Nc3cc4cc(-c5cnn(C)c5)ccc4cn3)cc2)CC1 [Compound 68]
(B) CN(C)CCOc1cc(C(=O)Nc2cc3cc(-c4cnn(C)c4)ccc3cn2)ccn1 [Compound 73]
Record comparison, field EC50: mark the lower of A and B . Write the label of whichever entry you select.
B

====

test target: UniProt P49761
protocol summary: CLK3 kinase activity assay (Z-lyte, Ser/Thr 18 peptide)
observable: EC50 (nM)

Worked set:
CN(C)Cc1cncc(-c2ccc3[nH]nc(-c4nc5c(-c6cccc(F)c6)cncc5[nH]4)c3c2)c1 ... 7
CN1CCN(C(=O)C(C)(C)c2ccc(C(=O)Nc3cn4cc(-c5ccncc5)ccc4n3)cc2)CC1 ... 35
CN1CCCCN(C)c2nccc3[nH]c(nc23)-c2n[nH]c3ccc(cc23)-c2cncc(c2)C1 ... 11.9
CC(C)CC(=O)Nc1cncc(-c2ccc3[nH]nc(-c4cc5c(N6CCCCC6)cncc5[nH]4)c3c2)c1 ... 35.1
O=C(Nc1cc2cc(-c3cnn4c3CN(CCF)CC4)ccc2cn1)c1ccnc(OC2CNC2)c1 ... 44.3

(a) O=C1COc2cccc(c2)-c2cncc3[nH]c(nc23)-c2n[nH]c3ccc(cc23)-c2cncc(c2)N1
(b) CN1CCN(c2ccc(C(=O)Nc3cc4cc(-c5nncs5)ccc4cn3)cn2)CC1
Select one. Lower EC50: a or b Your choice should be expressed through its label.
a
(a: 16.3 nM, b: 54 nM)

====

System: ovarian cancer (4 cell lines)
protocol summary: CellTiter-Glo Viability Assay, ovarian cancer
Assay type: cell-based
conditions used: Homo sapiens, PA-1; PA1 cell line; inhibition of cancer cell proliferation; read-out: Ovarian cancer, EC50 (μM) PA1
observable: EC50 (µM)

O=C(Nc1ccc(OCCN2CCCC2)cc1)c1n[nH]cc1/C=C/c1cccnc1 [Compound 92] ... 9.92
Cn1cc(-c2ccc3cnc(NC(=O)c4ccc5c(c4)CNCC5)cc3c2)cn1 [Compound 74] ... 0.495
CN1CCC(Oc2ccc(C(=O)Nc3cc4cc(-c5cnn(C)c5)ccc4cn3)cc2)CC1 [Compound 68] ... 0.537

(a) O=C(Nc1cncc(-c2ccc3[nH]nc(-c4cc5cnccc5[nH]4)c3c2)c1)C1CCCCC1 [Compound 47]
(b) Cc1cc2ncc(-c3ccc4cnc(NC(=O)c5ccnc(N6CCN(C)CC6)c5)cc4c3)cc2[nH]1 [Compound 87]
(c) CN(C)Cc1cncc(-c2ccc3[nH]nc(-c4cc5c(-c6ccoc6)ccnc5[nH]4)c3c2)c1 [Compound 51]
(d) CS(=O)(=O)NCc1cc(F)cc(-c2nccc3[nH]c(-c4n[nH]c5ccc(-c6cncc(NC(=O)C7CCC7)c6)cc45)cc23)c1 [Compound 53]
Sort ascending by EC50. Enter labels, ranked according to the request.
a, b, d, c

(1) CN1CCN(c2ccc(NC(=O)c3n[nH]c4ccc(-c5cncc(NC(=O)C6CC6)c5)cc34)cn2)CC1 [Compound 60]
(2) CN1CCC2(CC1)CN(c1cc(C(=O)Nc3cc4cc(-c5cnn(C)c5CO)ccc4cn3)ccn1)C2 [Compound 76]
Between the two listed entries 1 and 2 , which has its EC50 at the higher number? Label of pick, please.
2
(2: 0.725 µM, 1: 0.405 µM)

====

Tested on: liver cancer (3 cell lines)
protocol summary: CellTiter-Glo Viability Assay, liver cancer
Type: cell-based
conditions used: Homo sapiens; HEPG2 cell line; inhibition of cancer cell proliferation; read-out: Liver cancer, EC50 HEPG2
Method: Fifty-one human cancer cell lines (breast cancer (8 cell lines), colorectal cancer (6 cell lines), haematopoietic & lymphoid tumors (13 cell lines), liver cancer (3 cell lines), lung cancer (4 cell lines), ovarian cancer (4 cell lines), pancreatic cancer (8 cell lines), and prostate cancer (5 cell lines)) were tested to determine the effects of representative compounds of Formulas (I)-(XII) on cellular proliferation, as evaluated using the CellTiter-Glo® Viability Assay. […]
Let's look at some compounds and their measured EC50.

Here are 2 compounds together with their reported answers.
O=C1COc2cccc(c2)-c2cncc3[nH]c(nc23)-c2n[nH]c3ccc(cc23)-c2cncc(c2)N1 ... > 10 µM
CN(C)Cc1cncc(-c2ccc3[nH]nc(-c4cc5c(-c6ccoc6)ccnc5[nH]4)c3c2)c1 ... > 10 µM

Attention now shifts to the item below.
Using the record for O=C(Nc1ccc(OCCN2CCCC2)cc1)c1n[nH]cc1/C=C/c1cccnc1 , report its EC50.
> 10 µM

====

test target: CLK3 (Homo sapiens, UniProt P49761)
Sequence (P49761 whole entry): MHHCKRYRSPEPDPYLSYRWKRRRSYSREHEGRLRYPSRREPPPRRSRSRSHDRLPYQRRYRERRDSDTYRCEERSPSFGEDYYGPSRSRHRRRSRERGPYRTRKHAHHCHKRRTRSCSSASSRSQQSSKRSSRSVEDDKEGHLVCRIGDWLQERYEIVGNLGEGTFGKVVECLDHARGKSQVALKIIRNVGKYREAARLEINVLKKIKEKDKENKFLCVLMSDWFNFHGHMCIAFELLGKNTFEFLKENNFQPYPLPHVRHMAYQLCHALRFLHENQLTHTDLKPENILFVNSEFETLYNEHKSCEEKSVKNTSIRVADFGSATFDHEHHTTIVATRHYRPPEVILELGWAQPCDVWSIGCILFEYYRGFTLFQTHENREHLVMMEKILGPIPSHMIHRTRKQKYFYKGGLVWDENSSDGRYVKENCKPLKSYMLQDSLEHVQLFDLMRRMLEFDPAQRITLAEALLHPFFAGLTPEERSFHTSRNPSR
protocol summary: CLK3 kinase activity assay (Z-lyte, Ser/Thr 18 peptide)
observable: EC50 (nM)

CN1CCC(N(C)c2cc(C(=O)Nc3cc4cc(-c5cnn(C)c5)ccc4cn3)ccn2)CC1 [Compound 72] ... 19.9

(P) Cn1ncc(-c2ccc3cnc(NC(=O)C4CC5(C4)CN(CCF)C5)cc3c2)c1CN1CCCCC1 [Compound 77]
(Q) Cc1ncc(-c2ccc3[nH]nc(-c4nc5c(-c6cc(F)cc(NCCN(C)C)c6)ccnc5[nH]4)c3n2)n1C [Compound 8]
Please compare: P and Q . Report which one has the smaller EC50 value. Please reply using the label of the selected record.
Q
(Q: 22 nM, P: 50 nM)

====

As shown below, each of these compounds has a reported EC50 value.
System: MCF7
protocol summary: CellTiter-Glo Viability Assay, breast cancer
Assay type: cell-based
conditions used: Homo sapiens, 96 h; MCF7, breast cancer, four days; read-out: EC50
Protocol: Fifty-one human cancer cell lines (breast cancer (8 cell lines), colorectal cancer (6 cell lines), haematopoietic & lymphoid tumors (13 cell lines), liver cancer (3 cell lines), lung cancer (4 cell lines), ovarian cancer (4 cell lines), pancreatic cancer (8 cell lines), and prostate cancer (5 cell lines)) were tested to determine the effects of representative compounds of Formulas (I)-(XII) on cellular proliferation, as evaluated using the CellTiter-Glo® Viability Assay. […]

Below: 2 compounds and their reported EC50.
O=C1COc2cccc(c2)-c2cncc3[nH]c(nc23)-c2n[nH]c3ccc(cc23)-c2cncc(c2)N1 [Compound 56] ... > 10 µM
O=C1CCc2cccc(c2)-c2cncc3[nH]c(nc23)-c2n[nH]c3ccc(cc23)-c2cncc(c2)N1 [Compound 55] ... > 3.5 µM

Give MCF7 EC50 for O=C(Nc1ccc(OCCN2CCCC2)cc1)c1n[nH]cc1/C=C/c1cccnc1 [Compound 92]
> 10 µM

====

test target: CLK2 (Homo sapiens)
Construct: purchased Thermo Fisher (Life Technologies), Z'-LYTE Kinase Assay Kits
Sequence (P49760 whole entry): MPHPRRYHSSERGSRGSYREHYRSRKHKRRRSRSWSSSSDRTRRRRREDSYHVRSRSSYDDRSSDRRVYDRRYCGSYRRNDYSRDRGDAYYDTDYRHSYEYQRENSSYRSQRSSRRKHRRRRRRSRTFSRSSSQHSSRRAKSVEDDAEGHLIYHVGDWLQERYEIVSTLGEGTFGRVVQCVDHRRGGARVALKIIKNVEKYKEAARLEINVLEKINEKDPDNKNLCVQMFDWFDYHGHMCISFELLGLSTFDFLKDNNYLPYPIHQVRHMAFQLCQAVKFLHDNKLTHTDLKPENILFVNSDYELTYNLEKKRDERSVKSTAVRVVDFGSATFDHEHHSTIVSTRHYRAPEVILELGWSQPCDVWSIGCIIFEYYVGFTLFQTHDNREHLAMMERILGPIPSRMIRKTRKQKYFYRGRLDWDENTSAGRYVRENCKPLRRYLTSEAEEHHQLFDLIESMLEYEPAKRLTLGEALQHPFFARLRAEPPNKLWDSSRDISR
protocol summary: CLK2 kinase activity assay (Z-lyte, Ser/Thr 6 peptide)
Format: biochemical
conditions used: recombinant CLK2 kinase, ATP 60 μM; read-out: EC50
observable: EC50 (nM)

CCS(=O)(=O)c1cccc(-c2cc(C(=O)NC3CCN(C)CC3)c(C)c3[nH]c4ncc(C)cc4c23)c1 [Compound 24] ... 3

(A) Cc1nnc(-c2ccc3cnc(NC(=O)c4ccnc(SC5CCN(C)CC5)c4)cc3c2)s1 [Compound 19]
(B) NC1CN(c2cncc(-c3cc4c(-c5nc6c(-c7cccc(F)c7)cccc6[nH]5)n[nH]c4cn3)n2)C1 [Compound 44]
Of A and B , whose reported EC50 is the larger number? // output: label of the selected item
B
(B: 18 nM, A: 2 nM)
